- Tested on: MCF7 breast
- experimental details: NCI tumour cell line growth inhibition, 48 h
Measured TGI by item
endpoint name: TGI

compound | tested system | result value
COc1cccc(C(C#N)NNC(=O)c2c(Cl)c(Cl)c(Cl)c(Cl)c2-c2nc3ccc(C(=O)c4ccccc4)cc3[nH]2)c1O (stereo not given) | MCF7 breast | > 100 µM
N#C/C(=C/N1CCN(C(=O)c2ccco2)C1=S)C(=O)Nc1ccc(Cl)cc1 | MCF7 breast | > 50 µM
O=c1[nH]cc(N=Cc2cc(Cl)ccc2O)c(=O)[nH]1 | MCF7 breast | > 100 µM
CC(C)=Cc1cc(CCC/C(C)=C/Cc2c(O)cc(C)c(C(=O)O)c2O)co1 | MCF7 breast | > 100 µM
O=C1C=CC(=O)c2c(O)c(N3CCOCC3)c(Cl)c(O)c21 | MCF7 breast | 0.486 µM
